Entries and their log10 of IC50 values follow.
target: CDK9/Cyclin T1 (Homo sapiens); assay: CDK9 enzyme protocol (LANCE ULight TR-FRET kinase assay); conditions: 4 nM CDK9/Cyclin T1, 1000 μM ATP, 100 nM U-light MBP peptide, 30 minutes
Sequence (P50750 whole entry): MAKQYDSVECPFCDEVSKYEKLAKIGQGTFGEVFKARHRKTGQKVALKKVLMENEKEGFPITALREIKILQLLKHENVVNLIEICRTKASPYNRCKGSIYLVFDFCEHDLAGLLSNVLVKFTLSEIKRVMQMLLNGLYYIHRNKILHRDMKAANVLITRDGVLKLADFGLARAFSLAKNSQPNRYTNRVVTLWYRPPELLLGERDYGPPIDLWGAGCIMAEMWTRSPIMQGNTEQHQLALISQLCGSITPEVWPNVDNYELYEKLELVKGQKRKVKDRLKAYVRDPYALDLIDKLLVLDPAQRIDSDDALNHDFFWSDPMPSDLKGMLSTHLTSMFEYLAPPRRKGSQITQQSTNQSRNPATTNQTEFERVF
Sequence (O60563 whole entry partner): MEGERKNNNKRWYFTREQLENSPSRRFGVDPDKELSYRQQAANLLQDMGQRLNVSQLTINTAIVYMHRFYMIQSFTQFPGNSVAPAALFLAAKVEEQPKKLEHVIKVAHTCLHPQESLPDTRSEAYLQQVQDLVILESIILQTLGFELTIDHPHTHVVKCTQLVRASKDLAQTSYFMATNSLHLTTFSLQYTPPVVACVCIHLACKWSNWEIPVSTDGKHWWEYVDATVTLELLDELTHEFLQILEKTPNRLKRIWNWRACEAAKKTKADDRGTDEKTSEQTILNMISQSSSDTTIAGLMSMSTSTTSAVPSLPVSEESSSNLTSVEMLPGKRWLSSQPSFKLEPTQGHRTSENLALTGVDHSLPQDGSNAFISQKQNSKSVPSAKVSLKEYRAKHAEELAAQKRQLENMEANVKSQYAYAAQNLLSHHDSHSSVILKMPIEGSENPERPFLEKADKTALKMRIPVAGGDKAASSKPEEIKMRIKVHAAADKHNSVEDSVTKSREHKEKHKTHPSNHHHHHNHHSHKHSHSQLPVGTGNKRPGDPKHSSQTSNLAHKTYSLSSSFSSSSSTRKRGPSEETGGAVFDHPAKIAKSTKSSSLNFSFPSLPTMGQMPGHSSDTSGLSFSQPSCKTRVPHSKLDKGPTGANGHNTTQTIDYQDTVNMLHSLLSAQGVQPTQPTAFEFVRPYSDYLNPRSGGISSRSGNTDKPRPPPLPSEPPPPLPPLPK
Could you please treat all values as log10 of IC50 in µM?

Q. Fill in log10 of IC50 for record COc1ccc(C)cc1-c1ncnc2[nH]c(C3=CCN(S(C)(=O)=O)CC3)cc12
A. -0.21

Q. Fill in log10 of IC50 for record CS(=O)(=O)N1CC=C(c2cc3c(-c4cc(NCc5ccccc5)ccc4F)ncnc3[nH]2)CC1
A. -0.89

Q. Fill in log10 of IC50 for record COc1ccc(F)cc1-c1ncnc2[nH]c(C3=CCN(Cc4cc(F)cc(F)c4)CC3)cc12
A. -0.77

Q. Fill in log10 of IC50 for record COc1ccc(F)cc1-c1ncnc2[nH]c(C3=CCC(F)(F)CC3)cc12
A. -1.21

Q. Fill in log10 of IC50 for record COc1ccc(F)cc1-c1ncnc2[nH]c(C3=CCN(Cc4ccc(NC(=O)OC(C)(C)C)cc4)CC3)cc12
A. -0.35

Q. Fill in log10 of IC50 for record COc1ccc(F)cc1-c1ncnc2[nH]c(C3=CCN(C)CC3)cc12
A. -1.64

Q. Fill in log10 of IC50 for record COc1ccc(F)cc1-c1ncnc2[nH]c(C3=CCN(Cc4cccc(C#N)c4)CC3)cc12
A. -0.57

Q. Fill in log10 of IC50 for record COc1ccc(F)cc1-c1ncnc2[nH]c(C3=CCC(N[C@@H](C(=O)O)C(C)C)CC3)cc12 (some centres unmarked)
A. -0.36

Where do the numbers come from? From patent US9346813B2.
